Overview of reported pIC50 across a group of compounds:
assay: Antiproliferative activity against human HCT116 cells assessed as inhibition of cell proliferation after 48 hrs by MTT assay; type: functional, cell-based; details: HCT-116, 48 h
Please report pIC50 as the negative decimal logarithm of the molar concentration, giving only the number.

compound	measurement-name	recorded-number
COc1cc2c(c(OC)c1OC)-c1ccc(OC)c(=O)cc1[C@@H](NC(C)=O)CC2 [COLCHICINE]	pIC50	7.82

Please look at the following compound next.
Qu. Entry under review: COc1ccc(/C=C/C(=O)c2ccc(OC)c3c2OC(C)(C)C=C3)cc1N . Reported pIC50?
Ans. 7.68

###

system: Rattus norvegicus; assay: AUC in rat at 9 mg/kg, po; assay type: ADME, organism-based, Plasma; parameters: dose 9 mg/kg, route oral; settings: in vivo
measurement-name: AUC (ng·h/mL)
Dear colleague, please return just the value in ng·h/mL, with no unit written.

Qu. Entry under review: COc1ccc(/C=C/C(=O)c2ccc(OC)c3c2OC(C)(C)C=C3)cc1N . Reported AUC?
Ans. 2040

###

assay: Antiproliferative activity against human ES2 cells assessed as inhibition of cell proliferation after 48 hrs by MTT assay; format: functional, cell-based; conditions: ES-2, 48 h
measurement-name: IC50

query-smiles	IC50
COc1cc2c(c(OC)c1OC)-c1ccc(OC)c(=O)cc1[C@@H](NC(C)=O)CC2	18 nM

Please look at the following molecule next.
Qu. Entry under review: COc1ccc(/C=C/C(=O)c2ccc(OC)c3c2OC(C)(C)C=C3)cc1N . Reported IC50?
Ans. 8 nM

###

test: Toxicity in iv dosed BALB/c mouse; format: organism-based; conditions: in vivo
measurement-name: MTD (mg/kg)
Dear colleague, please return just the value in mg/kg, with no unit written.

query-smiles	u	MTD
COc1ccc(/C=C/C(=O)c2ccc(OC)c3c2OC(C)(C)C=C3)cc1N.Cl	mg/kg	250

Qu. Entry under review: COc1ccc(/C=C/C(=O)c2ccc(OC)c3c2OC(C)(C)C=C3)cc1N.O=S(=O)(O)O . Reported MTD?
Ans. 200

###

assay: Solubility in PBS solution by nephelometry; type: physicochemical
Would you mind labelling by solubility kinetic? At or over 50 µg/mL is true, under is false.

Consider the worked cases shown below.
query-smiles	category
COc1ccc(/C=C/C(=O)c2ccc(OC)c3c2OC(C)(C)C=C3)cc1N.O=C(O)C(O)C(O)C(=O)O	true
COc1ccc(/C=C/C(=O)c2ccc(OC)c3c2OC(C)(C)C=C3)cc1N.O=C(O)/C=C\C(=O)O	false
COc1ccc(/C=C/C(=O)c2ccc(OC)c3c2OC(C)(C)C=C3)cc1N.Cl	true
COc1ccc(/C=C/C(=O)c2ccc(OC)c3c2OC(C)(C)C=C3)cc1N	false

We next turn to a different compound, shown below.
Qu. Does the reported solubility kinetic for COc1ccc(/C=C/C(=O)c2ccc(OC)c3c2OC(C)(C)C=C3)cc1N.O=S(=O)(O)O fall at or above the 50 µg/mL mark?
Ans. true

###

assay: Cmax in rat at 2.25 mg/kg, iv; format: ADME, organism-based; parameters: dose 2.25 mg/kg, route intravenous; conditions: in vivo
measurement-name: Cmax (ng/mL)
Dear colleague, please return just the value in ng/mL, with no unit written.

Qu. Entry under review: COc1ccc(/C=C/C(=O)c2ccc(OC)c3c2OC(C)(C)C=C3)cc1N . Reported Cmax?
Ans. 2940

###

experiment: Oral bioavailability in rat at 15 mg/kg; assay type: ADME, organism-based; conditions: in vivo
measurement-name: bioavailability (%)
Dear colleague, please return just the value in %, with no unit written.

Qu. Entry under review: COc1ccc(/C=C/C(=O)c2ccc(OC)c3c2OC(C)(C)C=C3)cc1N.Cl . Reported bioavailability?
Ans. 47

###

assay: Antiproliferative activity against taxol resistant human HCT8 cells assessed as inhibition of cell proliferation after 48 hrs by MTT assay; format: functional, cell-based; details: HCT-8, 48 h
Overview of reported pIC50 across a group of compounds:
Please report pIC50 as the negative decimal logarithm of the molar concentration, giving only the number.

query-smiles	pIC50
COc1ccc(/C=C/C(=O)c2ccc(OC)c3c2OC(C)(C)C=C3)cc1N	6.82

Please look at the following compound next.
Qu. Entry under review: CC(=O)O[C@H]1C(=O)[C@@]2(C)[C@H]([C@H](OC(=O)c3ccccc3)[C@]3(O)C[C@H](OC(=O)[C@H](O)[C@@H](NC(=O)c4ccccc4)c4ccccc4)C(C)=C1C3(C)C)[C@]1(OC(C)=O)CO[C@@H]1C[C@@H]2O . Reported pIC50?
Ans. 6.58

###

tested on: Rattus norvegicus; assay: AUC in rat at 15 mg/kg, po; type: ADME, organism-based, Plasma; design: dose 15 mg/kg, route oral; conditions: in vivo
measurement-name: AUC (ng·h/mL)
Dear colleague, please return just the value in ng·h/mL, with no unit written.

Qu. So what AUC did COc1ccc(/C=C/C(=O)c2ccc(OC)c3c2OC(C)(C)C=C3)cc1N.Cl get with Rattus norvegicus?
Ans. 2260
